Molecular target: C3a receptor (C3aR) (Homo sapiens)
Construct: peripheral blood mononuclear cells were isolated from buffy coat (obtained from Australian Red Cross Blood Service, Kelvin Grove); endogenous in cells; host or cells: primary human monocyte-derived macrophages (HMDM) differentiated from CD14+ monocytes of donor buffy coat
Sequence (Q16581 1-482): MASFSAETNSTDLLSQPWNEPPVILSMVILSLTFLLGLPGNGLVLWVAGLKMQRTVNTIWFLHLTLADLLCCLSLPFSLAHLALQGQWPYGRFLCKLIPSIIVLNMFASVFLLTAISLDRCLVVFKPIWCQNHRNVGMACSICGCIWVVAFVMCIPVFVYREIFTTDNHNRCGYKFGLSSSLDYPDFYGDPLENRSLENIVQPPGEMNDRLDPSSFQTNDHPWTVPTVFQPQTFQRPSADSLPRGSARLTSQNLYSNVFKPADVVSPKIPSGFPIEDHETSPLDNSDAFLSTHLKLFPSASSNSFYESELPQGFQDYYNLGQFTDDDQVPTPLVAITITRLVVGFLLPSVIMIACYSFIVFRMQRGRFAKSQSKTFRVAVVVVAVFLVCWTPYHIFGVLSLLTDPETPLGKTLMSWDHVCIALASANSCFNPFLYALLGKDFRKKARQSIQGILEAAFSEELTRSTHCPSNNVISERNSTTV
Assay: Competitive binding with [^125I]-C3a in HMDM
Conditions: Table 6; competitive binding with [^125I]-C3a, HMDM
measurement-label: pIC50 ± SEM
# answer = number (no unit)

Task: // pIC50 ± SEM lookup, key: "CC[C@H](C)[C@H](NC(=O)c1cccc(OC)c1OC)c1nc(C(=O)N[C@@H](CCCNC(=N)N)C(=O)O)co1"
Result: 6.15

Task: Now this one: "CC[C@H](C)[C@H](NC(=O)c1ccccc1Oc1ccccc1)c1nc(C(=O)N[C@@H](CCCNC(=N)N)C(=O)O)co1"
Result: 7.26

Task: Now this one: "CC[C@H](C)[C@H](NC(=O)c1cncc(Br)c1)c1nc(C(=O)N[C@@H](CCCNC(=N)N)C(=O)O)co1"
Result: 8.30

Task: Now this one: "CC[C@H](C)[C@H](NC(=O)CCC(=O)c1ccc(-c2ccccc2)cc1)c1nc(C(=O)N[C@@H](CCCNC(=N)N)C(=O)O)co1"
Result: 6.81

Task: Now this one: "CC[C@H](C)[C@H](NC(=O)OC(C)(C)C)c1nc(C(=O)N[C@@H](CCCNC(=N)N)C(=O)O)co1"
Result: 7.53

Task: Now this one: "CC[C@H](C)[C@H](NC(=O)c1ccc(OC)cc1OC)c1nc(C(=O)N[C@@H](CCCNC(=N)N)C(=O)O)co1"
Result: 6.06

Task: Now this one: "CC[C@H](C)[C@H](NC(=O)c1ccc(N(C)C)cc1)c1nc(C(=O)N[C@@H](CCCNC(=N)N)C(=O)O)co1"
Result: 6.10

* * *

Target: C3a receptor (C3aR) (Homo sapiens, UniProt Q16581)
Construct: peripheral blood mononuclear cells were isolated from buffy coat (obtained from Australian Red Cross Blood Service, Kelvin Grove); endogenous in cells; host or cells: primary human monocyte-derived macrophages (HMDM) differentiated from CD14+ monocytes of donor buffy coat
Sequence (Q16581 1-482): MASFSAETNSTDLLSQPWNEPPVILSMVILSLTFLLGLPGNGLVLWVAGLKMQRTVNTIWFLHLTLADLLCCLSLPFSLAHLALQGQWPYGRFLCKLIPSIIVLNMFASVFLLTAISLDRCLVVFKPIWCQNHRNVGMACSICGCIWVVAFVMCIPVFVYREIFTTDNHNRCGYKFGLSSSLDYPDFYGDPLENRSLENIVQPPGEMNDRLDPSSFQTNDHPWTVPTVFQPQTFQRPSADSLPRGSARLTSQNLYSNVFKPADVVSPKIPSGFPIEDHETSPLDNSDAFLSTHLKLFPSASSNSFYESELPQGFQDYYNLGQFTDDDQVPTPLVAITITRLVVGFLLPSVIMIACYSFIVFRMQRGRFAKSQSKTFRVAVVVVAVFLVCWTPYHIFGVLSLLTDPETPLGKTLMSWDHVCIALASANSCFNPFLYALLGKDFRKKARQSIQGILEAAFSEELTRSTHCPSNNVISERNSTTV
Assay: Competitive binding with [^125I]-C3a in HMDM
Details: Table 6; competitive binding with [^125I]-C3a, HMDM; read-out: IC50 (converted)
measurement-label: log10 of IC50 (log10 of the value in nM)
Give log10 of IC50, with IC50 taken in nM.

Task: Give the reported log10 of IC50 for N#CN=C(N)NCCC[C@H](NC(=O)c1ccc(C(c2ccccc2)c2ccccc2)s1)C(=O)NS(=O)(=O)c1ccccc1 [Compound 96] (system: C3a receptor (C3aR) (Homo sapiens, UniProt Q16581)).
Result: 2.95

Task: Now this one: CC(C)C[C@H](NC(=O)Cc1ccc(F)cc1)c1nc(C(=O)N[C@@H](CCCNC(=N)N)C(=O)O)co1 [Compound 24]
Result: 2.01

Task: Now this one: CC[C@H](C)[C@H](NC(=O)c1nccc2ccccc12)c1nc(C(=O)N[C@@H](CCCNC(=N)N)C(=O)O)co1 [Compound 10]
Result: 2.09

Task: Now this one: CC(C)C[C@H](NC(=O)c1c[nH]c2ccccc12)c1nc(C(=O)N[C@@H](CCCNC(=N)N)C(=O)O)co1 [Compound 8]
Result: 0.95

Task: Now this one: CC[C@H](C)[C@H](NC(=O)OC(C)(C)C)c1nc(C(=O)N[C@@H](CCCNC(=N)N)C(=O)O)co1 [Compound 2]
Result: 1.48

Task: Now this one: Cc1[nH]c([C@H](CC(C)C)NC(=O)c2c[nH]c3ccccc23)nc1C(=O)N[C@@H](CCCNC(=N)N)C(=O)O [Compound 79]
Result: 1.08

Task: Now this one: N=C(N)NCCC[C@H](NC(=O)c1coc(C(c2ccccc2)c2ccccc2)n1)C(=O)O [Compound 56]
Result: 1.57
